- Test system: Erk1/2 phosphorylation
- ASSAY TEXT: Erk1/2 Phosphorylation Assay (western blot), Panc-1
- Format: cell-based, human
- RUN CONDITIONS: at 10 μM, * = activation
TEST READOUT: % inh of Erk1/2 phosphorylation in Panc-1

COc1ccnc(Nc2nc(-c3nccn3C)nn3cc(-c4c(F)cccc4OC)c(-c4ccccc4)c23)c1 [Compound 217] = D* (85-100% activation)
CCOc1ccnc(Nc2nc(-c3nccn3C)nn3cc(-c4ccn(C5CC5)n4)c(C)c23)c1 [Compound 141] = B (26-49% inhibition)
Cc1c(-c2ccn(C)n2)cn2nc(-c3nccn3C)nc(-n3[nH]c(N)cc3=O)c12 [Compound 261] = B (26-49% inhibition)
COc1cncnc1Nc1nc(-c2nccn2C)nn2cc(-c3ccn(C(C)C)n3)c(C)c12 [Compound 73] = D* (85-100% activation)
COc1cccc(-c2cn3nc(-c4nccn4C)nc(N[C@@H]4CC[C@H]4OC)c3c2-c2ccccc2)c1C (racemic) [Compound 272] = D (85-100% inhibition)
Cc1c(-c2ccn(C)n2)cn2nc(-c3nccn3C)nc(Nc3cc(-n4ccnc4C)ccn3)c12 [Compound 246] = 0 (0% inhibition)
COC1CCCN(c2nc(-c3ccccn3)nn3cc(-c4ccn(C(C)C)n4)c(C)c23)C1 (racemic) [Compound 12] = 0 (0% inhibition)
CO[C@H]1C[C@H](Nc2nc(-c3nccn3C)nn3cc(-c4ccncc4)c(-c4ccccc4)c23)C1 [Compound 199] = D* (85-100% activation)

Report its % inh of Erk1/2 phosphorylation in Panc-1 with Erk1/2 phosphorylation as the test system: Cc1c(-c2ccn(C3CC3)n2)cn2nc(-c3nccn3C)nc(Nc3cc(OC(F)F)ccn3)c12 [Compound 139]
D* (85-100% activation)

Report its % inh of Erk1/2 phosphorylation in Panc-1 with Erk1/2 phosphorylation as the test system: COc1ccc(Nc2nc(-c3nccn3C)nn3cc(-c4ccn(C(C)C)n4)c(C)c23)nn1 [Compound 74]
D* (85-100% activation)

Report its % inh of Erk1/2 phosphorylation in Panc-1 with Erk1/2 phosphorylation as the test system: Cc1c(-c2ccn(C)n2)cn2nc(-c3nccn3C)nc(Nc3ccncn3)c12.Cl [Compound 116]
D* (85-100% activation)

Report its % inh of Erk1/2 phosphorylation in Panc-1 with Erk1/2 phosphorylation as the test system: COc1cccc(Nc2nc(-c3nccn3C)nn3cc(-c4ccn(C(C)C)n4)c(-c4ccccc4)c23)n1 [Compound 23]
D (85-100% inhibition)

Report its % inh of Erk1/2 phosphorylation in Panc-1 with Erk1/2 phosphorylation as the test system: COc1cc(Nc2nc(-c3nccn3C)nn3cc(-c4ccn(C)n4)c(C)c23)ncc1F [Compound 237]
0 (0% inhibition)
